study-target: Syk catalytic domain (aa 356-635 with a C-terminal His-tag) (Homo sapiens)
Construct: His-tag (C); made in house
run-description: In vitro Syk kinase activity measured by trFRET, Syk catalytic domain
Type: biochemical
Procedure: In Vitro Syk Kinase Activity Measured by Time-Resolved Fluorescence Resonance Energy Transfer (trFRET) 0.14 nM purified Syk catalytic domain (aa 356-635 with a C-terminal His-tag purified in-house by immobilized metal ion affinity chromatography) was mixed with 0.2 μM peptide substrate (biotin-TYR1, Sequence: Biotin-(Ahx)-GAEEEIYAAFFA-COOH) at varying inhibitor concentrations in reaction buffer: 50 mM MOPSO pH 6.5, 10 mM MgCl2, 2 mM MnCl2, 2.5 mM DTT, 0.01% BSA, 0.1 mM Na3VO4 and 0.001 mM ATP. […]
metric-name: IC50

The cases that follow already have their IC50 on record.
COCCOc1ccc(-c2nc(C)n3c2cnc2[nH]ccc23)cc1 :: 100 to 1000 nM
CCc1c(-c2ccc(C(C)(C)O)cc2)[nH]c2ncc3nncn3c12 :: 100 to 1000 nM
CC(C)(O)c1ccc(-c2nc(CNC(=O)CO)n3c2cnc2[nH]ccc23)cc1 :: 100 to 1000 nM
COc1ccc(-c2nc(C)n3c2cnc2[nH]ccc23)cc1OC :: < 100 nM
Cc1cc(-c2ncn3c2cnc2[nH]ccc23)ccn1 :: 100 to 1000 nM
COc1ccc(-c2nc(CN3CCNCC3)n3c2cnc2[nH]ccc23)cc1 :: 100 to 1000 nM
COc1ccc(-c2nc([C@H]3CCC[C@@H](N)C3)n3c2cnc2[nH]ccc23)cc1 :: 100 to 1000 nM
CS(=O)(=O)c1ccc(-c2nc([C@H]3CC[C@H](N)CC3)n3c2cnc2[nH]ccc23)cc1 :: 100 to 1000 nM
COc1ccc(-c2nc(C)n3c2cnc2[nH]ccc23)s1 :: < 100 nM
COc1ccc(-c2ncn3c2cnc2[nH]ccc23)cc1C :: < 100 nM

# input Item under review: CC(=O)N[C@@H]1C[C@H](c2nc(-c3ccc(C(C)(C)O)cc3)c3cnc4[nH]ccc4n23)N(S(=O)(=O)C2CC2)C1 . Reported IC50?
# output 100 to 1000 nM

# input Could you do the same for COc1ccc(-c2nn(C)c3c2cnc2[nH]ccc23)cc1 , please?
# output < 100 nM

# input Could you do the same for CC(=O)Nc1cccc(-c2nc(C3CCCCC3)n3c2cnc2[nH]ccc23)c1 , please?
# output 100 to 1000 nM

# input Could you do the same for Cc1nc(-c2ccc(C(C)(C)O)c(F)c2)c2cnc3[nH]ccc3n12 , please?
# output < 100 nM

# input Could you do the same for Cn1cc(-c2cc3c(ncc4cnn(C)c43)[nH]2)c2ccc(C(=O)O)cc21 , please?
# output < 100 nM

# input Could you do the same for Fc1ccc(-c2nc(C3CCCCC3)n3c2cnc2[nH]ccc23)cc1 , please?
# output 1000 to 10000 nM

# input Could you do the same for Cc1nc(-c2ccc(S(=O)(=O)C(C)C)cc2)c2cnc3[nH]ccc3n12 , please?
# output 100 to 1000 nM

# input Could you do the same for Cc1nc(-c2ccc(CO)cc2)c2cnc3[nH]ccc3n12 , please?
# output 100 to 1000 nM

# input Could you do the same for NS(=O)(=O)c1ccc(-c2nc(C3CCCCC3)n3c2cnc2[nH]ccc23)cc1 , please?
# output 100 to 1000 nM
